# experimental-system: BTK (Homo sapiens (Human))
# experimental-parameters: read-out: BTK IC50
pIC50: −log10 of the molar value.
Listing of recorded pIC50 by entry.
quantity: pIC50

1) C=CC(=O)N1CCC[C@@H](c2nc(-c3ccc(Oc4cccc(OC)c4F)cc3)c3cnccn23)C1 [Example 1] | > 8.00
2) C=CC(=O)N1CCC[C@H]1c1nc(-c2ccc(Oc3cccc(OC)c3)cc2)c2cnccn12 [Example 16] | > 8.00
3) C=CC(=O)N1CCC[C@H]1c1nc(-c2ccc(Oc3cccc(OC)c3F)cc2)c2cnccn12 [Example 30] | > 8.00
4) C=CC(=O)N1CCC[C@H]1c1nc(-c2ccc(Oc3cccc(F)c3F)cc2)c2cnccn12 [Example 20] | > 8.00
5) C=CC(=O)N1CCC[C@H]1c1nc(-c2ccc(OCc3c(F)cccc3F)cc2)c2cnccn12 [Example 136] | 7.00 to 8.00
6) C=CC(=O)N1CCCC[C@H]1c1nc(-c2ccc(Oc3cccc(OC)c3F)cc2)c2c(C)nccn12 [Example 27] | > 8.00

###

# experimental-system: BTK (Homo sapiens (Human), UniProt Q06187)
# Sequence (Q06187 whole entry, looked up, species assumed): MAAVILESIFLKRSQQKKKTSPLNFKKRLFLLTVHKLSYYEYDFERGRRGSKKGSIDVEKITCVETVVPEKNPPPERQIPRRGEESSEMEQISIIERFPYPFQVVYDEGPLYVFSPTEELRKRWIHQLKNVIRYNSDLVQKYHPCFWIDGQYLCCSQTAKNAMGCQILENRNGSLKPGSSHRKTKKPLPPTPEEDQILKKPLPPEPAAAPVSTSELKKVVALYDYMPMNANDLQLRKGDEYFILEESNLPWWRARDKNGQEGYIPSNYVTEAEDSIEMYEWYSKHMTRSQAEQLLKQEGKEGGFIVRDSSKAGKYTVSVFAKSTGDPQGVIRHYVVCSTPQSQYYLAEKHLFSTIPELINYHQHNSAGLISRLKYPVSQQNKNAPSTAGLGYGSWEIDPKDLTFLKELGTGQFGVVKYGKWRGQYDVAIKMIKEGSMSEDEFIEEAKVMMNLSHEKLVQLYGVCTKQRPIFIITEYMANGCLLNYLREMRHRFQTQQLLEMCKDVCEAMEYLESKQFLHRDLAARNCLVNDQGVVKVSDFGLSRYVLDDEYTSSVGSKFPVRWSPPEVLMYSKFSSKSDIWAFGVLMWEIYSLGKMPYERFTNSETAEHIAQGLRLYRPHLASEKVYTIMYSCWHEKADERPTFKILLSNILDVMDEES
# experimental-parameters: read-out: BTK Inhibition
pIC50: −log10 of the molar value.
pIC50 by entry:
quantity: pIC50

1) C=CC(=O)N1CCC[C@H]1c1nc(-c2ccc(Oc3cccc(OC)c3F)cc2)c2c(C)ncc(C)n12 | > 8.00
2) CC#CC(=O)N1CC[C@@H](c2nc(-c3ccc(Oc4cccc(OC)c4F)cc3)c3cncc(OCCC)n23)C1 | > 8.00
3) CC#CC(=O)N1CC[C@@H](c2nc(-c3ccc(Oc4cccc(OC)c4F)cc3)c3cncc(OC)n23)C1 | > 8.00
4) C=CC(=O)N1CCCC[C@H]1c1nc(-c2ccc(Oc3cccc(F)c3)cc2)c2c(C)nccn12 | > 8.00
5) CC#CC(=O)N1CC[C@@H](c2nc(-c3ccc(Oc4cccc(OC)c4F)cc3)c3c(C)nccn23)C1 | > 8.00
6) CN(C)C(=O)N1CCCC[C@H]1c1nc(-c2ccc(C(=O)Nc3ccccn3)cc2)c2c(C(F)(F)F)nccn12 | < 5.00
7) C=CC(=O)N1CCC[C@@H](c2nc(-c3ccc(Oc4cccc(OC)c4F)cc3)c3cnccn23)C1 | > 8.00
8) C=CC(=O)N1CC[C@@H](c2nc(-c3ccc(Oc4cccc(OC)c4F)cc3)c3c(C)ncc(C)n23)C1 | > 8.00
9) COc1cccc(Oc2ccc(-c3nc([C@@H]4CCN(C(=O)/C=C/CN(C)C5CC5)C4)n4ccnc(C)c34)cc2)c1F | > 8.00
10) C=CC(=O)N1CC[C@@H](c2nc(-c3ccc(Oc4cccc(OC)c4F)cc3)c3cncc(OC4CCOC4)n23)C1 (stereo partly drawn) | > 8.00
11) CC#CC(=O)N1CC[C@@H](c2nc(-c3ccc(Oc4cccc(OC)c4F)cc3)c3cnccn23)C1 | > 8.00
12) C=CC(=O)N1CCC[C@H]1c1nc(-c2ccc(C(=O)Nc3ccccn3)cc2)c2c(C)ncc(C)n12 | > 8.00
13) CC#CC(=O)N1CCCC[C@H]1c1nc(-c2ccc(C(=O)Nc3ccccn3)cc2)c2c(C3CC3)nccn12 | < 5.00
14) CC#CC(=O)N1CC[C@@H](c2nc(-c3ccc(Oc4cccc(OC)c4F)cc3)c3c(OC)nccn23)C1 | < 5.00
15) CC#CC(=O)N1CCC[C@H]1c1nc(-c2ccc(Oc3ccccc3)nc2)c2cnccn12 | < 5.00
